// data source = PubChem BioAssay (NCATS)

- assay: Quantitative High-Throughput drug screen in 47 multiple myeloma cell lines against the NCATS MIPE library collection: JJN3_DSMZ cell viability assay (AID 1918966; also: nearly all actives have a fitted effect of over 50% in size)
- recorded conditions: JJN3 myeloma cells viability, CellTiter-Glo ATP, 48 h; series mostly up to 45.8 µM
Records with an inconclusive call do not appear. Calls of active or inactive are those of the source. Calls follow the shape of the dose curve; as a rule, active = well fitted cell-killing curve with a large enough effect; inconclusive = small, poorly fitted or top-dose-only effect, or effect the other way; inactive = no such curve, though single readings can be large or run the other way.
Classes used: y for active, n for inactive

| compound | answer label |
| --- | --- |
| COc1ccc(C(=O)CC(=O)c2ccc(C(C)(C)C)cc2)cc1 | y |
| CNNCc1ccc(C(=O)NC(C)C)cc1 | n |
| COc1c(N2CCNC(C)C2)c(F)cc2c(=O)c(C(=O)O)cn(C3CC3)c12 (stereo unspecified) | n |
| Cc1ccnc2c1NC(=O)c1cccnc1N2C1CC1 | n |
| CC(C)OC(=O)OCOP(=O)(CO[C@H](C)Cn1cnc2c(N)ncnc21)OCOC(=O)OC(C)C | y |
| CCOC(=O)[C@H](CCc1ccccc1)N[C@H]1CCc2ccccc2N(CC(=O)O)C1=O | y |

* * *

- assay: qHTS profiling of the MIPE4 collection as inhibitors of Plasmodium falciparum (DD2) proliferation (AID 743345)
- recorded conditions: P. falciparum Dd2 in erythrocytes, SYBR Green DNA, 72 h; at 28.5 µM (top of the series) unless noted
experimental readout: parasite growth remaining, % of DMSO control (lower = more inhibition) (%)

| molecule | unit annotation | val |
| --- | --- | --- |
| CC1=NN(c2ccccc2)C(=O)C1 | % | 94.6 |
| Cc1cccc(Nc2ccncc2S(=O)(=O)NC(=O)NC(C)C)c1 | % | 104 |
| CCN(CC)CC#CCOC(=O)C(O)(c1ccccc1)C1CCCCC1 (stereo unspecified) | % | 58.4 |
| N[C@@H](C(=O)N[C@@H]1C(=O)N2C(C(=O)O)=C(Cl)CS[C@H]12)c1ccccc1 | % | 96.8 |
| CCN[C@H]1C[C@H](C)S(=O)(=O)c2sc(S(N)(=O)=O)cc21 | % | 19.2 |
| CCn1cc(C(=O)O)c(=O)c2cc(F)c(N3CCN(C)CC3)cc21 | % | 70.5 |

* * *

- System: ATS95
- assay: qHTS profiling for inhibitors of Plasmodium falciparum proliferation (AID 504749); also: nearly all actives have a fitted effect of over 60% in size
- recorded conditions: P. falciparum in erythrocytes, SYBR Green DNA, 72 h; series mostly up to 28.7 µM
- Method: NIH National Institute of Allergy and Infectious Diseases [NIAID] NIH Chemical Genomics Center [NCGC] […] Because mature erythrocytes lack DNA, only Plasmodium-derived DNA is detected. NCGC Assay Protocol Summary: The SYBR Green viability assay was adapted from a method described previously (Plouffe et al., 2008). […] The following morning, fluorescence intensity at 485(14) nm excitation and 535(25) nm emission wavelengths was measured on an EnVision (Perkin Elmer) plate reader. […]
Records with an inconclusive call do not appear. Active and inactive are the calls of the source. Calls follow the shape of the dose curve; as a rule, active = well fitted inhibition curve with a large enough effect; inconclusive = small, poorly fitted or top-dose-only effect; inactive = flat fitted curve, though single readings scatter.
Outcomes: 1 (yes) (active), 0 (no) (inactive)

| molecule | answer label |
| --- | --- |
| CN(C)c1ccc(C(=C2C=CC(=[N+](C)C)C=C2)c2ccc(N(C)C)cc2)cc1 | 1 (yes) |
| CCn1cc(C(=O)O)c(=O)c2cc(F)c(N3CCNCC3)cc21 | 0 (no) |
| CCOC(=O)c1ccc(C#Cc2ccc3c(c2)C(C)(C)CCS3)nc1 | 0 (no) |
| O=c1cc(O)c(Cl)c[nH]1 | 0 (no) |
| CCOC(=O)c1ccc(OC(=O)CCCCCN=C(N)N)cc1 | 0 (no) |
| CCC(C)(C)c1ccc(CC(C)CN2C[C@@H](C)O[C@@H](C)C2)cc1 (stereo partly specified) | 0 (no) |

* * *

- assay: qHTS of pediatric cancer cell lines to identify multiple opportunities for drug repurposing: Confirmatory screen for DAOY cells (AID 1347114); also: nearly all actives have a fitted effect of over 65% in size; also: potency is read from the fitted curve at half-maximal effect
- recorded conditions: DAOY medulloblastoma cells viability, cytotoxicity qHTS; series mostly up to 45.9 µM
Records with an inconclusive call do not appear. The source made the active and inactive calls. Calls follow the shape of the dose curve; as a rule, active = well fitted cell-killing curve with a large enough effect; inconclusive = small, poorly fitted or top-dose-only effect; inactive = no such curve, though single readings can be large or run the other way.

| molecule | Potency |
| --- | --- |
| Nc1nc(F)nc2c1ncn2[C@@H]1O[C@H](CO)[C@@H](O)[C@@H]1O | inactive |
| COc1cc2nc(N3CCCN(C)CC3)nc(NC3CCN(Cc4ccccc4)CC3)c2cc1OC | inactive |
| COc1ccc(C(=O)CC(=O)c2ccc(C(C)(C)C)cc2)cc1 | inactive |
| COC(=O)Nc1nc2ccc(S(=O)c3ccccc3)cc2[nH]1 (centres undefined) | 928 nM (active) |

* * *

- System: Tov-21-G
- assay: Primary qHTS to identify gynecologic anti-cancer compounds using libraries of approved drugs and bioactive compounds (AID 1345084); also: nearly all actives have a fitted effect of over 55% in size
- recorded conditions: Gynecologic cancer cell panel viability, ATPlite luminescence, 48 h; series mostly up to 57.5 µM
Records with an inconclusive call do not appear. Active and inactive are the calls of the source. Calls come from the whole dose curve; as a rule, active = well fitted cell-killing curve with a large enough effect; inconclusive = small, poorly fitted or top-dose-only effect, or effect the other way; inactive = flat fitted curve, though single readings scatter.
Outcome codes: class 1 (active), class 0 (inactive)

| molecule | system | answer label |
| --- | --- | --- |
| Cc1nnc(NS(=O)(=O)c2ccc(N)cc2)s1 | Tov-21-G | class 0 |
| Clc1ccccc1CN1CCc2sccc2C1 | Tov-21-G | class 0 |
| CC1(C)[C@H](C(=O)O)N2C(=O)C[C@H]2S1(=O)=O | Tov-21-G | class 0 |
| Nc1nc(=S)c2[nH]cnc2[nH]1 | Tov-21-G | class 1 |
| CNS(=O)(=O)CCc1ccc2[nH]cc(C3CCN(C)CC3)c2c1 | Tov-21-G | class 0 |
| C[C@@H](CN1CC(=O)NC(=O)C1)N1CC(=O)NC(=O)C1 | Tov-21-G | class 0 |
| Cc1noc(NS(=O)(=O)c2ccc(N)cc2)c1C | Tov-21-G | class 0 |
| CCN(C)C(=O)Oc1cccc([C@H](C)N(C)C)c1 | Tov-21-G | class 0 |
| COc1cnc(NS(=O)(=O)c2ccc(N)cc2)nc1 | Tov-21-G | class 0 |
| CCc1c2c(nc3ccc(OC(=O)N4CCC(N5CCCCC5)CC4)cc13)-c1cc3c(c(=O)n1C2)COC(=O)[C@]3(O)CC | Tov-21-G | class 0 |
| O=C(NCC1CN(c2ccc(N3CCOCC3=O)cc2)C(=O)O1)c1ccc(Cl)s1 (stereo unspecified) | Tov-21-G | class 0 |

* * *

- assay: S16 Schwann cell viability assay (CellTiter-Glo assay) (AID 624031); also: nearly all actives have a fitted effect of over 70% in size
- recorded conditions: S16 rat Schwann cells viability, 24 h; series mostly up to 57.5 µM
Records with an inconclusive call do not appear. Calls of active or inactive are those of the source. Calls follow the shape of the dose curve; as a rule, active = well fitted cell-killing curve with a large enough effect; inconclusive = small, poorly fitted or top-dose-only effect, or effect the other way; inactive = flat fitted curve, though single readings scatter.
Classes used: t (active), f (inactive)

| compound | answer label |
| --- | --- |
| CCOc1cc(N)c(Cl)cc1C(=O)NCC1CN(Cc2ccc(F)cc2)CCO1 (stereo not given) | f |
| S=P(N1CC1)(N1CC1)N1CC1 | f |
| CNCC[C@H](Oc1cccc2ccccc12)c1cccs1 | t |
| Clc1ccccc1CN1CCc2sccc2C1 | f |
| COc1cc(NCc2ccc3nc(N)nc(N)c3c2C)cc(OC)c1OC | t |
| Nc1ccc(S(=O)(=O)Nc2ccccn2)cc1 | f |
| Cc1cccc(N(C)C(=S)Oc2ccc3ccccc3c2)c1 | f |
| CCCc1cc(C(N)=S)ccn1 | f |
| CN(CCOc1ccc(CC2SC(=O)NC2=O)cc1)c1ccccn1 (stereo not given) | f |
| CN(C)c1ccc(C(=C2C=CC(=[N+](C)C)C=C2)c2ccc(N(C)C)cc2)cc1 | t |
| OC(Cn1cncn1)(Cn1cncn1)c1ccc(F)cc1F | f |
| CC1=CC(=O)c2ccccc2C1=O | t |
| CCc1c2c(nc3ccc(OC(=O)N4CCC(N5CCCCC5)CC4)cc13)-c1cc3c(c(=O)n1C2)COC(=O)[C@]3(O)CC | f |
| CNC1CCCN(c2c(F)cc3c(=O)c(C(=O)O)cn(C4CC4)c3c2OC)C1 (stereo not given) | f |
| C#CCN[C@@H]1CCc2ccccc21 | f |
| CCN(C)C(=O)Oc1cccc([C@H](C)N(C)C)c1 | f |
| Cn1nnc2c(C(N)=O)ncn2c1=O | f |
| NC(=O)N1c2ccccc2CC(=O)c2ccccc21 | f |
| O=S(=O)(c1cccc2cnccc12)N1CCCNCC1 | f |
| O=c1cc(O)c(Cl)c[nH]1 | f |
| COc1ccc(C(=O)CC(=O)c2ccc(C(C)(C)C)cc2)cc1 | f |
| CC1=NN(c2ccccc2)C(=O)C1 | f |
| Cc1cc(NS(=O)(=O)c2ccc(N)cc2)no1 | f |
| CC(C)NCC(O)c1ccc(NS(C)(=O)=O)cc1 (stereo not given) | f |
| COc1ccc(-c2ccc3cc(C(=O)O)ccc3c2)cc1C12CC3CC(CC(C3)C1)C2 | f |
